Hey, just so you know, these numbers are from the NIST ThermoML archive (doi:10.1016/j.jct.2015.07.046).

# Experimental details: activity coefficient (dimensionless); of the first substance listed, at infinite dilution; xn = mol fraction of the nth substance listed
# Conditions used: 343.15 K; 101.3 kPa; Liquid; Chromatography; x1 = 0
The molecules listed here are annotated with their activity coefficient.
When you answer, write just the number.

These solved cases illustrate the format of a correct answer.
Molecule	activity coefficient
C=Cc1ccccc1 [styrene] + CCn1cc[n+](C)c1.COP(=O)([O-])OC	5.01
CCCCCCCC [octane] + CCn1cc[n+](C)c1.COP(=O)([O-])OC	158
CCCCCCCCCC [decane] + COP(=O)([O-])OC.Cn1cc[n+](C)c1	448
CCCCCCCCCC [decane] + CCn1cc[n+](C)c1.COP(=O)([O-])OC	316
Cc1ccccc1 [toluene] + COP(=O)([O-])OC.Cn1cc[n+](C)c1	7.48

# lookup: activity coefficient of C1CCCCC1 [cyclohexane] + COP(=O)([O-])OC.Cn1cc[n+](C)c1
50.9

// query activity coefficient value for entry Cc1ccccc1C [1,2-dimethylbenzene] + COP(=O)([O-])OC.Cn1cc[n+](C)c1
12.2

GET /values?readout=activity coefficient&item= Cc1ccc(C)cc1 [1,4-dimethylbenzene] + CCn1cc[n+](C)c1.COP(=O)([O-])OC
10.5

If you can, please state the reported activity coefficient value of Cc1cccc(C)c1 [1,3-dimethylbenzene] + COP(=O)([O-])OC.Cn1cc[n+](C)c1 .
14.2
